The following molecules are listed with their measured Papp at 0.5 h values.
Assay Explanation: Permeability of the compound at pH 7.4 after 30 mins by PAMPA
Format: ADME
Reported Conditions: read-out: permeability
Just the number please, in ×10⁻⁶ cm/s, no unit attached.

Please review the following examples before continuing.
INSERT INTO measurements (smi, val) VALUES
  ('c1ccc(-c2ccc3c(NCCCNCc4ccco4)ccnc3c2)cc1', 237),
  ('COc1cccc(Oc2ccc3c(NCCCNCc4ccc5c(c4)OCO5)ccnc3c2)c1', 317),
  ('COc1cccc(CNCCCNc2ccnc3cc(CCC(C)C)ccc23)c1O', 23);

State the recorded Papp at 0.5 h for this entry: COc1ccc(F)cc1CNCCCNc1ccnc2cc(Oc3ccc(F)cc3)ccc12
317

Requested read-out: Papp at 0.5 h. Entry: COc1cccc(CNCCCNc2ccnc3cc(-c4ccccc4)ccc23)c1O
237

Given Fc1ccc(Oc2ccc3c(NCCCNCc4ccco4)ccnc3c2)cc1 , state its recorded Papp at 0.5 h.
317

Suppose we examine the molecule COc1ccc(F)cc1CNCCCNc1ccnc2cc(CCc3ccccc3)ccc12 ; what Papp at 0.5 h value has been reported?
23

Look at this molecule and give its reported Papp at 0.5 h. COc1ccc(F)cc1CNCCCNc1ccnc2cc(Cc3cccc(C(F)(F)F)c3)ccc12
23

I am curious: what Papp at 0.5 h value has been reported for Fc1ccc(Cc2ccc3c(NCCCNCc4ccco4)ccnc3c2)c(Cl)c1 ?
23

Fill in the blank: the reported Papp at 0.5 h of COc1ccc(Oc2ccc3c(NCCCNCc4cc(F)ccc4OC)ccnc3c2)cc1 is ____.
317

---

Items are presented alongside their recorded solubility at 18 h.
Assay Explanation: Solubility of the compound at pH 7.4 after 18 hrs by UV spectroscopic analysis
Type: physicochemical
Reported Conditions: buffer
Enter your answer as a number in µM; do not include the unit.

INSERT INTO assay_data (smi, val) VALUES
  ('FC(F)(F)c1ccc(-c2ccc3c(NCCCNCc4ccco4)ccnc3c2)cc1', 32);

Endpoint output: solubility at 18 h of FC(F)(F)c1cc(-c2ccc3c(NCCCNCc4ccc5c(c4)OCO5)ccnc3c2)cc(C(F)(F)F)c1 . Value?
32

Quick check: solubility at 18 h of CC(C)CCc1ccc2c(NCCCNCc3ccc4c(c3)OCO4)ccnc2c1 ?
4.2

Endpoint output: solubility at 18 h of COc1ccc(F)cc1CNCCCNc1ccnc2cc(Oc3ccc(F)cc3)ccc12 . Value?
14.5

Endpoint output: solubility at 18 h of COc1ccc(F)cc1CNCCCNc1ccnc2cc(-c3cc(C(F)(F)F)cc(C(F)(F)F)c3)ccc12 . Value?
32

---

Measured solubility at 18 h, listed per entry for reference.
Assay Explanation: Solubility of the compound at pH 7.4 after 18 hrs by UV spectroscopic analysis
Type: physicochemical
Reported Conditions: buffer
Entry rule: numbers only, all in µM.

Consider the reported solubility at 18 h for these compounds:
INSERT INTO measurements (smi, endpoint_name, units_of_measure, val) VALUES
  ('COc1ccc(Oc2ccc3c(NCCCNCc4cccc(OC)c4O)ccnc3c2)cc1', 'solubility at 18 h', 'µM', 14.5),
  ('COc1cccc(CNCCCNc2ccnc3cc(Oc4ccc(C(C)(C)C)cc4)ccc23)c1O', 'solubility at 18 h', 'µM', 14.5),
  ('c1ccc(Oc2ccc3c(NCCCNCc4ccco4)ccnc3c2)cc1', 'solubility at 18 h', 'µM', 14.5),
  ('Fc1ccc(Oc2ccc3c(NCCCNCc4ccc5c(c4)OCO5)ccnc3c2)cc1', 'solubility at 18 h', 'µM', 14.5);

Could you now consider this next compound?
Given the entry COc1ccc(F)cc1CNCCCNc1ccnc2cc(Cc3ccc4c(c3)OCO4)ccc12 , report its measured solubility at 18 h.
32

---

Assay Explanation: Ratio of EC50 for human HepG2 cells to EC50 for Plasmodium falciparum 3D7 infected in human erythrocytes
Ratio EC50 values, listed per item
I only need the number, thanks.

Solved cases (3 shown):
INSERT INTO assay_data (smi, val) VALUES
  ('Fc1ccc(Cc2ccc3c(NCCCNCc4ccc5c(c4)OCO5)ccnc3c2)c(Cl)c1', 603.8),
  ('Fc1ccc(-c2ccc3c(NCCCNCc4ccc5c(c4)OCO5)ccnc3c2)cc1', 495.4),
  ('CC(C)CCc1ccc2c(NCCCNCc3ccc4c(c3)OCO4)ccnc2c1', 103.1);

So what's the measured Ratio EC50 for this one? COc1cccc(Oc2ccc3c(NCCCNCc4cc(F)ccc4OC)ccnc3c2)c1
3

Would you mind telling me what Ratio EC50 value was observed for COc1cccc(CNCCCNc2ccnc3cc(Oc4ccc(F)cc4)ccc23)c1O ?
990

---

Assay Explanation: Permeability of the compound at pH 7.4 after 30 mins by PAMPA
Format: ADME
Reported Conditions: read-out: permeability
Endpoint Name: Papp at 0.5 h (×10⁻⁶ cm/s)
Number in ×10⁻⁶ cm/s, nothing else.

Worked examples follow.
INSERT INTO assay_data (smi, val) VALUES
  ('COc1cccc(CNCCCNc2ccnc3cc(-c4ccc(C(F)(F)F)cc4)ccc23)c1O', 237),
  ('CC(C)CCc1ccc2c(NCCCNCc3ccco3)ccnc2c1', 23),
  ('CC(C)(C)c1ccc(Oc2ccc3c(NCCCNCc4ccc5c(c4)OCO5)ccnc3c2)cc1', 317);

Requested field: Papp at 0.5 h. Item: Clc1ccc(Oc2ccc3c(NCCCNCc4ccc5c(c4)OCO5)ccnc3c2)cc1
317

Quick one: Papp at 0.5 h of Fc1ccc(Oc2ccc3c(NCCCNCc4ccc5c(c4)OCO5)ccnc3c2)cc1 ?
317

---

Recorded Papp at 0.5 h by entry
Assay Explanation: Permeability of the compound at pH 7.4 after 30 mins by PAMPA
Assay type: ADME
Reported Conditions: read-out: permeability

# count of solved cases: 4
INSERT INTO results (smi, endpoint_name, val) VALUES
  ('COc1ccc(F)cc1CNCCCNc1ccnc2cc(Oc3ccc(Cl)cc3)ccc12', 'Papp at 0.5 h', '317 ×10⁻⁶ cm/s'),
  ('c1cc(NCCCNCc2ccc3c(c2)OCO3)c2ccc(CC3CCCCC3)cc2n1', 'Papp at 0.5 h', '23 ×10⁻⁶ cm/s'),
  ('COc1ccc(F)cc1CNCCCNc1ccnc2cc(CC3CCCCC3)ccc12', 'Papp at 0.5 h', '23 ×10⁻⁶ cm/s'),
  ('COc1cccc(CNCCCNc2ccnc3cc(Cc4ccccc4)ccc23)c1O', 'Papp at 0.5 h', '23 ×10⁻⁶ cm/s');

Data request, read-out Papp at 0.5 h, for Fc1ccc(Cc2ccc3c(NCCCNCc4ccco4)ccnc3c2)cc1
23 ×10⁻⁶ cm/s

---

Assay Explanation: Ratio of EC50 for human HepG2 cells to EC50 for Plasmodium falciparum 3D7 infected in human erythrocytes
Reported Ratio EC50 maps to class as: L (below 9), M (9 to below 60), H (60 or more)

INSERT INTO measurements (smi, assigned_category) VALUES
  ('COc1ccc(-c2ccc3c(NCCCNCc4cc(F)ccc4OC)ccnc3c2)cc1', 'H'),
  ('FC(F)(F)c1cccc(Cc2ccc3c(NCCCNCc4ccc5c(c4)OCO5)ccnc3c2)c1', 'M'),
  ('CCC(CC)c1ccc2c(NCCCNCc3ccco3)ccnc2c1', 'H'),
  ('COc1cccc(CNCCCNc2ccnc3cc(-c4ccc(C(C)(C)C)cc4)ccc23)c1O', 'L'),
  ('COc1ccc(-c2ccc3c(NCCCNCc4cccc(OC)c4O)ccnc3c2)cc1', 'H'),
  ('c1ccc(Cc2ccc3c(NCCCNCc4ccco4)ccnc3c2)cc1', 'H');

Category of CC(C)(C)c1ccc(Oc2ccc3c(NCCCNCc4ccc5c(c4)OCO5)ccnc3c2)cc1 :
L

In plain terms, what class is COc1ccc(F)cc1CNCCCNc1ccnc2cc(-c3cc(C(F)(F)F)cc(C(F)(F)F)c3)ccc12 ?
M

Which of the defined bands does the recorded Ratio EC50 of CC(C)(C)c1ccc(-c2ccc3c(NCCCNCc4ccc5c(c4)OCO5)ccnc3c2)cc1 sit within?
L

---

Assay Explanation: Permeability of the compound at pH 7.4 after 30 mins by PAMPA
Assay type: ADME
Reported Conditions: read-out: permeability
# reported Papp at 0.5 h; entries follow
The response must be a number in ×10⁻⁶ cm/s with no trailing unit.

Consider the reported Papp at 0.5 h for these compounds:
INSERT INTO measurements (smi, val) VALUES
  ('COc1cccc(CNCCCNc2ccnc3cc(Cc4ccc(F)cc4Cl)ccc23)c1O', 23),
  ('CC(C)CCc1ccc2c(NCCCNCc3ccc4c(c3)OCO4)ccnc2c1', 23),
  ('c1coc(CNCCCNc2ccnc3cc(C4CCCCC4)ccc23)c1', 23);

For CCC(CC)c1ccc2c(NCCCNCc3cccc(OC)c3O)ccnc2c1 , what is its reported Papp at 0.5 h?
23

# Papp at 0.5 h lookup, item COc1ccc(F)cc1CNCCCNc1ccnc2cc(-c3ccc(C(C)(C)C)cc3)ccc12
237
